The reported measurements were obtained from the supplement of paper PMC10126150.

Field: switch fluorescence ratio. Provide a value for each of the sequences that follow.
# Test system: ATP;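 note: ATP exposure 15 min at 22 °C before imaging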
# Protocol Description: switch fluorescence ratio, 500 uM ATP over buffer (Cy3 cluster intensity, sum of 5 cycles each) (fold (ratio)); higher = stronger signal-on switching upon ATP binding; sequences stand for … in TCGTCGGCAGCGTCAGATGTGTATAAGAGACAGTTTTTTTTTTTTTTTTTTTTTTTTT…TC
# Applied Conditions: aptamer strand: ATP DNA aptamer (quencher-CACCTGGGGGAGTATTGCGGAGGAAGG + anchor), 100 nM annealed; ATP concentration: 500 uM
Numbers only.

Worked examples follow.
Note to self: switch fluorescence ratio of `ATCTAGAGGA` with ATP was 0.985

Known value: ATP switch fluorescence ratio of the sequence `ACAGGTAGGT` equals 1

`TTGAGTACCG` tested on ATP gave switch fluorescence ratio: 0.959

Form field switch fluorescence ratio for item `AACCTTGTCC` on ATP: 1.61

ATP data for `GCTGGAATGG` ; its switch fluorescence ratio: 1.06

Record `TGGGTTAACT` has ATP switch fluorescence ratio equal to 1.02

# return switch fluorescence ratio for each item in the list
1. GTGTATGTTT
2. CTGTGGGTTC
3. TAGGGACGGC
4. GTGTTCGCTT
5. TGCTTTACGC

Out:
1: 1.01; 2: 1; 3: 1.07; 4: 0.984; 5: 1.03

For every listed record, write down its switch fluorescence ratio.
1. GCAGTTTGGC
2. AAGACAGTGC
3. GCTGATTAG
4. ATCGGGTTGG
5. ATTTTAGTTT

Out:
1. 1.01
2. 0.993
3. 0.954
4. 0.965
5. 1
